- Target of assay: Nuclear hormone receptor DAF-12 (Heterodera glycines)
- Experimental protocol: hgDAF-12 reporter activation EC50 – cell-based, luminescence, HEK293, dose response (AID 743059);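 further: agonist potency for compounds that raise hgDAF-12 reporter luminescence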
- Cond: HEK293 hgDAF-12 reporter, luciferase luminescence
Activity calls are given as the source filed them.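 How the source made its calls: active means EC50 at or below 10 µM; inactive means EC50 above 10 µM.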
Write down the outcome that applies. Available outcomes: active, inactive

Observe how each entry below is paired with its result.
>  <Molecule>
Cc1ccc(-n2ncc3ccccc3c2=O)cc1Cl

>  <Target of assay>
Nuclear hormone receptor DAF-12 (Heterodera glycines)

>  <Group>
inactive

$$$$
>  <Molecule>
Fc1ccc(-n2nnc(-c3cccnc3Cl)n2)cc1

>  <Target of assay>
Nuclear hormone receptor DAF-12 (Heterodera glycines)

>  <Group>
inactive

$$$$

So what was the verdict on CC1=CN2C(=N)/C(=C/c3ccco3)C(=O)N=C2S1 in this test?
inactive

So what was the verdict on N#C/C(=N\Nc1ccc(Cl)cc1)C(=N)N1CCCCCC1 in this test?
inactive

So what was the verdict on COc1cccc(-c2noc(-c3cccs3)n2)c1 in this test?
inactive

So what was the verdict on Nc1ccc(C(=O)Nc2ccccc2N)cc1 in this test?
active

So what was the verdict on Cc1ccc(Nc2ncccc2C(N)=O)cc1[N+](=O)[O-] in this test?
inactive

So what was the verdict on CCOC(=O)CSc1nc(-c2ccncc2)ccc1C#N in this test?
inactive

So what was the verdict on S=C(c1ccc(-c2ccc(Cl)cc2)o1)N1CCCCC1 in this test?
inactive

So what was the verdict on Cc1cccc(Nc2n[nH]c(C)c2[N+](=O)[O-])c1 in this test?
inactive

So what was the verdict on COc1cccc(-c2nc3ccccc3s2)c1 in this test?
inactive

* * *

- Target of assay: Nuclear hormone receptor DAF-12 (Heterodera glycines)
- Experimental protocol: hgDAF-12 reporter activation EC50 – cell-based, luminescence, HEK293, dose response (AID 743059);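 further: agonist potency for compounds that raise hgDAF-12 reporter luminescence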
- Cond: HEK293 hgDAF-12 reporter, luciferase luminescence
Active and inactive are the calls of the source.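 Rule for the calls: active = EC50 at or below 10 µM; inactive = EC50 above 10 µM.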
Write down the outcome that applies. Available outcomes: label 1 for active, label 0 for inactive

>  <Compound>
c1ccc(CSc2ccc(-c3ccccn3)nn2)nc1

>  <Group>
label 0

$$$$

So what was the verdict on Cc1cccc(/C(N)=N/OC(=O)c2ccco2)c1 in this test?
label 0

So what was the verdict on N#Cc1c(Br)n(C2OC(CO)C(O)C2O)c2ncnc(N)c12 (stereo not drawn) in this test?
label 0

So what was the verdict on Cn1c(O)c(N=NC(=O)c2ccco2)c2ccccc21 in this test?
label 0

So what was the verdict on Cc1cc2nn(-c3ccc(F)cc3)nc2cc1N in this test?
label 0

So what was the verdict on O=c1c2ccccc2cnn1-c1ccc2ccccc2c1 in this test?
label 0

So what was the verdict on C/C(=N/OCc1ccc(Br)cc1)c1ccccn1 in this test?
label 0

So what was the verdict on Cc1cc(C(=O)NC2=NCCS2)cs1 in this test?
label 0

So what was the verdict on CS(=O)(=O)c1ccc2nc(NC(=O)Nc3ccccc3F)sc2c1 in this test?
label 0

So what was the verdict on O=C(NCC1CCCO1)c1cc(-c2ccccc2F)no1 (stereo not drawn) in this test?
label 0

* * *

- Target of assay: Nuclear hormone receptor DAF-12 (Heterodera glycines)
- Experimental protocol: hgDAF-12 reporter activation EC50 – cell-based, luminescence, HEK293, dose response (AID 743059);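 further: agonist potency for compounds that raise hgDAF-12 reporter luminescence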
- Cond: HEK293 hgDAF-12 reporter, luciferase luminescence
Activity calls are given as the source filed them.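 How the source made its calls: active means EC50 at or below 10 µM; inactive means EC50 above 10 µM.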
Measured property: EC50

These solved cases illustrate the format of a correct answer.
>  <Chemical structure>
COc1ccc2oc3cc(NCCN(C)C)ccc3c(=O)c2c1

>  <EC50>
inactive

$$$$
>  <Chemical structure>
CCNC(=S)NNC(=O)c1cc(-c2ccc(OCC)cc2)nc2ccccc12

>  <EC50>
> 67.5 µM (inactive)

$$$$
>  <Chemical structure>
Cc1ccc(-c2nnc(NC3CCCC3)s2)cc1

>  <EC50>
> 67.6 µM (inactive)

$$$$
>  <Chemical structure>
C/C(=N\NC(=O)OC(C)(C)C)c1ccc[nH]1

>  <EC50>
> 67.6 µM (inactive)

$$$$
>  <Chemical structure>
Cc1ccc(-c2onc3ccc(C(=O)O)cc23)cc1

>  <EC50>
> 67.6 µM (inactive)

$$$$

Any idea what its EC50 is? The compound is Brc1ccc(-c2noc(-c3ccccn3)n2)o1
> 67.5 µM (inactive)

Any idea what its EC50 is? The compound is Clc1cccc(-c2nnc(-c3ccccc3)o2)c1
> 67.5 µM (inactive)
